- Test system: CEM cells HIV-1 protection, formazan growth assay
- assayNotes: NCI AIDS Antiviral Assay;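 active = compounds giving half or more protection of infected cells from virus-caused growth loss, again on retest; inactive = the rest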
Your response should consist of one outcome taken from 1 (yes) = active, 0 (no) = inactive

>  <compound>
O=C(NNC(=O)c1ccccc1O)c1ccccc1O

>  <category>
0 (no)

$$$$
>  <compound>
Nc1nc(Nc2ccc(Cl)c(Cl)c2)c(N=O)c(=O)[nH]1

>  <category>
0 (no)

$$$$

Problem: Fill in: this test's call for CC1(O)CSc2c(C=O)c3ccccc3n21 (centres undefined) is ___
Solution: 0 (no)

Problem: Could you check what this test reported for CCCCCCCCCCCCCCCC(=O)Nc1ccn(C2CCC(COP(=O)(O)OCC3OC(n4ccc(NC(=O)CCCCCCCCCCCCCCC)nc4=O)CC3OP(=O)(O)OCC3OC(n4cc(C)c(=O)[nH]c4=O)CC3N=[N+]=[N-])O2)c(=O)n1 (centres undefined) ?
Solution: 1 (yes)

---

Each entry below carries its recorded IC50.
- Test system: CEM cells HIV-1 protection, formazan growth assay
- assayNotes: NCI AIDS Antiviral Assay
- appliedConditions: measured here: growth of uninfected CEM cells

# count of solved cases: 10
>  <compound>
CCCCCCCCCCCC(O)=C1C(=O)CC(O)CC1=O (stereo not drawn)

>  <systemName>
CEM cells HIV-1 protection, formazan growth assay

>  <testValue>
> 17 µM

$$$$
>  <compound>
COc1ccccc1C1C(Cl)C(=O)N1n1cnc2ccccc2c1=O (stereo not drawn)

>  <systemName>
CEM cells HIV-1 protection, formazan growth assay

>  <testValue>
> 52.5 µM

$$$$
>  <compound>
Cc1nn(C(=O)c2ccc(Cl)cc2)c2c1C(c1ccco1)SC(N)=N2 (stereo not drawn)

>  <systemName>
CEM cells HIV-1 protection, formazan growth assay

>  <testValue>
> 200 µM

$$$$
>  <compound>
CC(=O)NC(CS/N=N/c1nc[nH]c1C(N)=O)C(=O)O (stereo not drawn)

>  <systemName>
CEM cells HIV-1 protection, formazan growth assay

>  <testValue>
0.38 µM

$$$$
>  <compound>
COC(=O)[C@@H](NS(=O)(=O)CC12CCC(CC1)C2(C)C)C(C)(C)C

>  <systemName>
CEM cells HIV-1 protection, formazan growth assay

>  <testValue>
> 200 µM

$$$$
>  <compound>
CC1=CCN(c2ccccn2)OC1c1ccccc1 (stereo not drawn)

>  <systemName>
CEM cells HIV-1 protection, formazan growth assay

>  <testValue>
> 74.1 µM

$$$$
>  <compound>
COc1ccc2cc(C(=O)O)ccc2c1OC

>  <systemName>
CEM cells HIV-1 protection, formazan growth assay

>  <testValue>
> 200 µM

$$$$
>  <compound>
O=[As](O)(O)c1ccc(F)cc1

>  <systemName>
CEM cells HIV-1 protection, formazan growth assay

>  <testValue>
> 200 µM

$$$$
>  <compound>
COc1ccc(C2CC(C)=Nc3c([nH]c(=S)[nH]c3=O)N2)cc1 (stereo not drawn)

>  <systemName>
CEM cells HIV-1 protection, formazan growth assay

>  <testValue>
> 16.6 µM

$$$$
>  <compound>
CC12C(=O)OC(=O)C1(C)C1C=CC2O1 (stereo not drawn)

>  <systemName>
CEM cells HIV-1 protection, formazan growth assay

>  <testValue>
132 µM

$$$$

Problem: Given the compound Cc1cn(C2OC(CO)CC2F)c(=O)[nH]c1=O (stereo not drawn) , what is its reported IC50?
Solution: > 646 µM

Problem: // returns reported IC50 for input N#CC1(c2nc3ccccc3o2)C(=O)C(=O)N(C2C3CC4CC(C3)CC2C4)C(=O)C1=O (stereo not drawn)
Solution: > 107 µM

Problem: Any idea what IC50 was measured for Cc1cc(C=C2C(=O)NC(=S)NC2=O)c(C)n1-c1ccccc1 ?
Solution: > 6.17 µM

Problem: GET /values?readout=IC50&item= O=S(=O)(O)c1ccc(NN(c2c(O)ccc3ccccc23)S(=O)(=O)O)cc1
Solution: 229 µM

Problem: State the recorded IC50 for this entry: Nc1c(Cl)ncnc1Nc1ccc(Cc2ccc(Nc3ncnc(Cl)c3N)cc2)cc1
Solution: > 79.4 µM

Problem: Looking for the measured IC50 of COC(=O)c1ccc2n1C1CC3CC(CC2C3)C1 , can you help?
Solution: 87.1 µM

Problem: Item c1ccc2[nH]c(C3CCCCO3)nc2c1 (stereo not drawn) has what recorded IC50?
Solution: > 200 µM

Problem: Look up IC50 for this compound: O=C1NC(=O)/C(=C/c2ccc(S(=O)(=O)N/N=C/c3ccc(Cl)cc3)cc2)N1
Solution: 123 µM
